# target_desc: T1, ERH-2^1-103-(Gly-Ser-Ser)7-PICS-1^180-200 (C. elegans, UniProt Q20057 1-103; O76616 180-200)
# T1 construct: ERH-2, C. elegans, residues 1-103; 21-aa linker (Gly-Ser-Ser)7; PICS-1 (PID-3), C. elegans, EBM, residues 180-200; Cloned into pET28-MHL; The results on ITC say only 'ERH-2' for the fused part; the methods describe only the 1-103 fusion; also called ERH-2-(GSS)7-PICS-1; ERH-2^1-103-(GSS)7-PICS-1^180-200; source: E. coli BL21(DE3), purified (Ni-NTA, TEV, second Ni-NTA, Superdex 75); not shown: His …
# T1 chain: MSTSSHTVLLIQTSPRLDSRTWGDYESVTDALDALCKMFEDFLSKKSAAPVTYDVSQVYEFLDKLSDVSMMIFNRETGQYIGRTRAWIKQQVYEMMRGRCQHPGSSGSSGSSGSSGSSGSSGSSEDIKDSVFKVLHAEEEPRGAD
# experimental_details: ITC; MicroCal ITC200, 25 °C, 20 mM Tris pH 8.5, 200 mM NaCl or 20 mM MES pH 6.5, 200 mM NaCl; 1–2 mM in the syringe into 30–50 μM in the cell; one-site binding model
# recorded_conditions: both partners purified

binder	Kd
TNLHRKVTLSDRFELAALGYE (domain or fragment, C. elegans, UniProt Q19541 50-70, looked up, PID-1, C. elegans, residues 50-70; the results say it was fused to the C-terminus of SUMO; also called PID-1 fragment; source: E. coli BL21(DE3), purified (Ni-NTA); not shown: SUMO, N-terminal, kept) [SUMO-fused PID-1^50-70]	12 µM
